Test: Clearance in Wistar rat at 10 mg/kg, po
Format: ADME, organism-based
Parameters: dose 10 mg/kg, route oral
Settings: in vivo
measurement type: CL/F (mL/min/kg)
Provide the reading as a plain figure in mL/min/kg.

Data request, read-out CL/F, for COc1ccc2c(c1)c1c(n2S(=O)(=O)c2ccccc2)CCC(N(C)C)C1 (racemic)
331

* * *

Biological target: 5-hydroxytryptamine receptor 2A (Homo sapiens) (UniProt P28223)
Sequence (P28223 whole entry): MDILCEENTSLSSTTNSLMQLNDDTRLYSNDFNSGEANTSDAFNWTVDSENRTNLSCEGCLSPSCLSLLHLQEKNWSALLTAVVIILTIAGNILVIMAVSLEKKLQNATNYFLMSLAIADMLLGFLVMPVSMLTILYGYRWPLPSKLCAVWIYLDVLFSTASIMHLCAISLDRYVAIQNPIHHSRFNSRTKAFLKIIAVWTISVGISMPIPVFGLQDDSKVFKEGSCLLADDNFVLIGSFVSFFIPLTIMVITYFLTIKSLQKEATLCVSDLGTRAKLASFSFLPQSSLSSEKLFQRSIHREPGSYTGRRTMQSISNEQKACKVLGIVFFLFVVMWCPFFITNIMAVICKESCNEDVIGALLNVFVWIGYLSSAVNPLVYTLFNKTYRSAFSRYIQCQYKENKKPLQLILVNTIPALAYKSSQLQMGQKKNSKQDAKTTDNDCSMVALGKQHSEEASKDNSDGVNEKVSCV
Experiment: Inhibition of 5-HT2A receptor at 10 uM
measurement type: inhibition
Kindly format the answer as number then unit.

Item: CN(C)C1CCc2c(c3cc(Br)ccc3n2S(=O)(=O)c2ccccc2)C1 (racemic) Test system: 5-hydroxytryptamine receptor 2A (Homo sapiens) (UniProt P28223) Read-out: inhibition Value: ?
51.4%

Item: CN(C)C1CCc2c(c3ccccc3n2S(=O)(=O)c2cccc(C(F)(F)F)c2)C1 (racemic) Test system: 5-hydroxytryptamine receptor 2A (Homo sapiens) (UniProt P28223) Read-out: inhibition Value: ?
19.6%

Item: COc1ccc2c(c1)c1c(n2S(=O)(=O)c2ccccc2)CCC(N(C)C)C1 (racemic) Test system: 5-hydroxytryptamine receptor 2A (Homo sapiens) (UniProt P28223) Read-out: inhibition Value: ?
46.7%

Item: CN(C)C1CCc2c(c3ccccc3n2S(=O)(=O)c2cccc(Cl)c2)C1 (racemic) Test system: 5-hydroxytryptamine receptor 2A (Homo sapiens) (UniProt P28223) Read-out: inhibition Value: ?
35.2%

* * *

Biological target: CYP3A4 (Homo sapiens, UniProt P08684)
Sequence (P08684 whole entry): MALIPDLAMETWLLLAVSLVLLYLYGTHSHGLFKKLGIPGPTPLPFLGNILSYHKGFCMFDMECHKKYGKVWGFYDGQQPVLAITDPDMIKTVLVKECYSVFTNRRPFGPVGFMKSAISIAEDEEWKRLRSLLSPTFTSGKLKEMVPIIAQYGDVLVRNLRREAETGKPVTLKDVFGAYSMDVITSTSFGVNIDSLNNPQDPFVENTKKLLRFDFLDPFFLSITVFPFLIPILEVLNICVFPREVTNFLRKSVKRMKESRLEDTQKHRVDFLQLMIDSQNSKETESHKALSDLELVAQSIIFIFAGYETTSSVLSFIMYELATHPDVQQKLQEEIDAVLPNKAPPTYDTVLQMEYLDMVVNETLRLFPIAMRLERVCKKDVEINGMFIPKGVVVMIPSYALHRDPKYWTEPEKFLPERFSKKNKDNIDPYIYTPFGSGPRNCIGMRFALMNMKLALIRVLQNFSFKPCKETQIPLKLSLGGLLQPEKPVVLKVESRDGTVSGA
Assay: Inhibition of human CYP3A4 at 3 uM
Format: ADME
measurement type: inhibition at 3 µM (%)
Provide the reading as a plain figure in %.

Item: CN(C)C1CCc2c(c3cc(Br)ccc3n2S(=O)(=O)c2ccccc2)C1 (racemic) Test system: CYP3A4 (Homo sapiens, UniProt P08684) Read-out: inhibition at 3 µM Value: ?
10

Item: CN(C)C1CCc2c(c3ccccc3n2S(=O)(=O)c2cccc(C(F)(F)F)c2)C1 (racemic) Test system: CYP3A4 (Homo sapiens, UniProt P08684) Read-out: inhibition at 3 µM Value: ?
10

Item: COc1ccc2c(c1)c1c(n2S(=O)(=O)c2ccccc2)CCC(N(C)C)C1 (racemic) Test system: CYP3A4 (Homo sapiens, UniProt P08684) Read-out: inhibition at 3 µM Value: ?
10

* * *

Biological target: 5-hydroxytryptamine receptor 6 (Homo sapiens)
Sequence (P50406 whole entry): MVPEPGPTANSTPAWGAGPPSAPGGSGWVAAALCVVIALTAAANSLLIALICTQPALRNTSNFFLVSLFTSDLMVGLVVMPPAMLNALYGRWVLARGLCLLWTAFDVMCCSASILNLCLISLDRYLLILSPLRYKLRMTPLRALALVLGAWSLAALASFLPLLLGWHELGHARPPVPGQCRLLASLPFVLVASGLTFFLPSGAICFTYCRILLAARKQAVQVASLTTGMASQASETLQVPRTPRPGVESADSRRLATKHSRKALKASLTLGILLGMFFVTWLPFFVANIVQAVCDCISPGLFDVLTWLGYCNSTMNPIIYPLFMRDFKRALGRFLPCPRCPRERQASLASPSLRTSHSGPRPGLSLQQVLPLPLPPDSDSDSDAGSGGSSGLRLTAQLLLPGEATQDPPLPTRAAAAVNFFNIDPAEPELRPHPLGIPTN
Test: Displacement of [3H]LSD from human cloned 5-HT6 receptor expressed in HEK293 cells
Assay type: cell-based
measurement type: Ki (nM)
Provide the reading as a plain figure in nM.

Data request, read-out Ki, for CN(C)C1CCc2c(c3cc(Br)ccc3n2S(=O)(=O)c2ccc(F)c(F)c2F)C1 (racemic)
61.2

Data request, read-out Ki, for CN(C)C1CCc2c(c3cc(F)cc(F)c3n2S(=O)(=O)c2ccccc2)C1 (racemic)
7.95

Data request, read-out Ki, for CNC1CCc2c(c3ccccc3n2S(=O)(=O)c2cccc(C(F)(F)F)c2)C1 (racemic)
17.1

Data request, read-out Ki, for CN(C)C1CCc2c(c3ccccc3n2S(=O)(=O)c2ccc(Br)cc2)C1 (racemic)
15.5

Data request, read-out Ki, for CN(C)C1CCc2c(c3ccccc3n2S(=O)(=O)c2cccc(Cl)c2)C1 (racemic)
4.21

* * *

So I've got a bunch of compounds here, and I need their inhibition values.
Target: Sodium-dependent dopamine transporter (Homo sapiens) (UniProt Q01959)
Sequence (Q01959 whole entry): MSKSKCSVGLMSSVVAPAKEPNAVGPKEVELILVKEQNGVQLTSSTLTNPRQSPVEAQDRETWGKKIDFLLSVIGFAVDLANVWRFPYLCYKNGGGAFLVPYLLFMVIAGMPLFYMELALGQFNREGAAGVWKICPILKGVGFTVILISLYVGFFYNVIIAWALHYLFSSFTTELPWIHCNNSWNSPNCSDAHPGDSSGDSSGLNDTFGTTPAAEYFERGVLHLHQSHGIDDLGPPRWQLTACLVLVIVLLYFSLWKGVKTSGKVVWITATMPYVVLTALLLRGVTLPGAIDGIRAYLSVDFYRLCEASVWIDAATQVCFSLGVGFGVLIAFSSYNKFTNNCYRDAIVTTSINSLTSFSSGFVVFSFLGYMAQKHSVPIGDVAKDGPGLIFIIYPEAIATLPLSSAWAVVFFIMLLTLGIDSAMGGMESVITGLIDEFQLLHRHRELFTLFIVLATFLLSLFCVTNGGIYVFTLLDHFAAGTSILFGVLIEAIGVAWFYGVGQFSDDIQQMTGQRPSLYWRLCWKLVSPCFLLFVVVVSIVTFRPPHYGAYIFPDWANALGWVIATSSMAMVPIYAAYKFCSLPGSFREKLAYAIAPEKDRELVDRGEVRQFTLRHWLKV
Experiment: Inhibition of DAT at 1 uM
Provide the reading as a plain figure in %.

Data request, read-out inhibition, for CN(C)C1CCc2c(c3ccccc3n2S(=O)(=O)c2cccc(Cl)c2)C1 (racemic)
0

Data request, read-out inhibition, for COc1ccc2c(c1)c1c(n2S(=O)(=O)c2ccccc2)CCC(N(C)C)C1 (racemic)
1.48

Data request, read-out inhibition, for CN(C)C1CCc2c(c3cc(Br)ccc3n2S(=O)(=O)c2ccccc2)C1 (racemic)
0

Data request, read-out inhibition, for CN(C)C1CCc2c(c3ccccc3n2S(=O)(=O)c2cccc(C(F)(F)F)c2)C1 (racemic)
18.4
